Catalogue of substances with associated percent inhibition of AR
# Tested on: AR mRNA
# EXPERIMENTAL_DETAILS: Dose-dependent antisense inhibition of human AR in HuVEC cells (electroporation, qRT-PCR RTS3559, IC50)
# Assay type: cell-based
# EXPERIMENTAL_PARAMETERS: 125.0 nM; HuVEC, ~16 h; Table 10
Oligonucleotides are written 5' to 3', each unit as a sugar letter and its base; * is a phosphorothioate linkage, no mark a phosphodiester; rarer units and linkages stand in square brackets, end groups in braces. Plain capitals give the bases only. e = 2'-O-(2-methoxyethyl) (MOE); k = constrained ethyl (cEt); [5mC] = 5-methylcytosine; d = 2'-deoxy (DNA)
ENDPOINT: percent inhibition of AR

* 569227 (antisense eT*eG*kA*kT*kT*dT*dA*dA*dT*dG*dG*dT*kT*kG*k[5mC]*eA) [compound 569227] | 40%
* 549458 (kG*kT*kT*dG*dA*dT*dT*dT*dA*dA*dT*dG*dG*kT*kT*kG) [compound 549458] | 46%
* 569236 (antisense eT*kG*kA*kT*dT*dT*dA*dA*dT*dG*dG*kT*kT*kG*e[5mC]*eA) [compound 569236] | 35%
* 579667 (antisense eT*kT*kG*eA*eT*kT*kT*dA*dA*dT*dG*dG*dT*dT*kG*k[5mC]) [compound 579667] | 29%
* 579666 (antisense eT*kG*kA*eT*eT*kT*kA*dA*dT*dG*dG*dT*dT*dG*k[5mC]*kA) [compound 579666] | 34%
* 569228 (antisense eT*eT*kG*kA*kT*dT*dT*dA*dA*dT*dG*dG*kT*kT*kG*e[5mC]) [compound 569228] | 44%

* * *

# Test system: AR mRNA
# EXPERIMENTAL_DETAILS: AR mRNA in liver, heart, skeletal muscle, kidney, prostate of cynomolgus monkeys
# Format: in vivo
# EXPERIMENTAL_PARAMETERS: cynomolgus monkey, 40 mg/kg subcutaneously, weeks 1 to 6, Liver
Oligonucleotides are written 5' to 3', each unit as a sugar letter and its base; * is a phosphorothioate linkage, no mark a phosphodiester; rarer units and linkages stand in square brackets, end groups in braces. Plain capitals give the bases only. e = 2'-O-(2-methoxyethyl) (MOE); k = constrained ethyl (cEt); [5mC] = 5-methylcytosine; d = 2'-deoxy (DNA)
Catalogue of substances with associated Percent Inhibition of AR mRNA relative to the PBS control, Liver
ENDPOINT: Percent Inhibition of AR mRNA relative to the PBS control, Liver (%)

• 584163 (kG*kA*kA*d[5mC]*dA*dT*dT*dA*dT*dT*dA*dG*dG*k[5mC]*kT*kA) [compound 584163] = 98
• 579671 (antisense eT*kT*kG*eA*kT*kT*dT*dA*dA*dT*dG*dG*dT*kT*kG*k[5mC]) [compound 579671] = 33
• 584149 (kG*kT*k[5mC]*dA*dA*dT*dA*dT*d[5mC]*dA*dA*dA*dG*k[5mC]*kA*k[5mC]) [compound 584149] = 93
• 583918 (kA*kG*kT*d[5mC]*dG*d[5mC]*dG*dA*d[5mC]*dT*d[5mC]*dT*dG*kG*kT*kA) [compound 583918] = 88

* * *

Catalogue of substances with associated AR mRNA levels (% baseline value) after treatment with DHT
# Tested on: AR mRNA
# EXPERIMENTAL_DETAILS: AR mRNA levels in LMR20 cells (with/without DHT or R1881)
# Assay type: cell-based, human
# EXPERIMENTAL_PARAMETERS: LMR20 cells, DHT 10 nM 72 hrs, ASO 5.0 μM
# Description: LMR20 cells were plated at 1,500 cells per well in phenol red-free medium with CSS.
Oligonucleotides are written 5' to 3', each unit as a sugar letter and its base; * is a phosphorothioate linkage, no mark a phosphodiester; rarer units and linkages stand in square brackets, end groups in braces. Plain capitals give the bases only. e = 2'-O-(2-methoxyethyl) (MOE); l = locked nucleic acid (LNA); k = constrained ethyl (cEt); [5mC] = 5-methylcytosine; d = 2'-deoxy (DNA)
ENDPOINT: AR mRNA levels (% baseline value) after treatment with DHT

* 554221 (ACCAAGTTTCTTCAGC; sugars from the 5' end l3 d10 l3, all phosphorothioate, methylation of C not given here) [compound 554221] | 100
* 549458 (kG*kT*kT*dG*dA*dT*dT*dT*dA*dA*dT*dG*dG*kT*kT*kG) [compound 549458] | 31
* 560131 (antisense kT*kT*kG*dA*dT*dT*dT*dA*dA*dT*dG*dG*kT*kT*kG*e[5mC]) [compound 560131] | 20
* 569236 (antisense eT*kG*kA*kT*dT*dT*dA*dA*dT*dG*dG*kT*kT*kG*e[5mC]*eA) [compound 569236] | 34

* * *

# Test system: AR mRNA
# EXPERIMENTAL_DETAILS: Antisense inhibition of human AR in HuVEC cells, single concentration (electroporation, qRT-PCR RTS3559)
# Type: cell-based
# EXPERIMENTAL_PARAMETERS: 1,000 nM ASO, ~24 h, Table 26
# Protocol: Antisense oligonucleotides were designed targeting an AR nucleic acid and were tested for their effects on AR mRNA in vitro. The antisense oligonucleotides were tested in a series of experiments that had similar culture conditions. […] AR mRNA levels were adjusted according to total RNA content, as measured by RIBOGREEN®. […] AR mRNA levels were adjusted according to total RNA content, as measured by RIBOGREEN®. […] AR mRNA levels were adjusted according to total RNA content, as measured by RIBOGREEN®. […]
Oligonucleotides are written 5' to 3', each unit as a sugar letter and its base; * is a phosphorothioate linkage, no mark a phosphodiester; rarer units and linkages stand in square brackets, end groups in braces. Plain capitals give the bases only. k = constrained ethyl (cEt); [5mC] = 5-methylcytosine; d = 2'-deoxy (DNA)
ENDPOINT: % inhibition (%)

- 549458 (kG*kT*kT*dG*dA*dT*dT*dT*dA*dA*dT*dG*dG*kT*kT*kG) [compound 549458]: 79
- 549372 (kA*kA*kG*dT*dT*dG*dT*dA*dG*dT*dA*dG*dT*k[5mC]*kG*k[5mC]) [compound 549372]: 58
- 584329 (kG*kG*kT*dT*dA*dT*dG*dG*dT*dT*d[5mC]*dT*dG*kT*k[5mC]*kT; antisense) [compound 584329]: 58
- 584361 (k[5mC]*kT*kT*d[5mC]*dA*dT*dT*dG*d[5mC]*dA*dG*dG*dT*k[5mC]*kT*kG; antisense) [compound 584361]: 61

* * *

# Test system: AR mRNA
# EXPERIMENTAL_DETAILS: Dose-dependent antisense inhibition of human AR in HuVEC cells (electroporation, qRT-PCR RTS3559, IC50)
# Type: cell-based
# EXPERIMENTAL_PARAMETERS: 125.0 nM; HuVEC, ~16 h; Table 11
Oligonucleotides are written 5' to 3', each unit as a sugar letter and its base; * is a phosphorothioate linkage, no mark a phosphodiester; rarer units and linkages stand in square brackets, end groups in braces. Plain capitals give the bases only. e = 2'-O-(2-methoxyethyl) (MOE); k = constrained ethyl (cEt); [5mC] = 5-methylcytosine; d = 2'-deoxy (DNA)
ENDPOINT: percent inhibition of AR (%)

• 579670 (antisense eT*kG*kA*eT*kT*kT*dA*dA*dT*dG*dG*dT*dT*kG*k[5mC]*kA) [compound 579670] = 28
• 579669 (antisense eG*kG*kT*eT*eG*kA*kT*dT*dT*dA*dA*dT*dG*dG*kT*kT) [compound 579669] = 39
• 549458 (kG*kT*kT*dG*dA*dT*dT*dT*dA*dA*dT*dG*dG*kT*kT*kG) [compound 549458] = 22
• 579672 (antisense eG*kT*kT*eG*kA*kT*dT*dT*dA*dA*dT*dG*dG*kT*kT*kG) [compound 579672] = 30
• 579671 (antisense eT*kT*kG*eA*kT*kT*dT*dA*dA*dT*dG*dG*dT*kT*kG*k[5mC]) [compound 579671] = 40

* * *

# Tested on: AR mRNA
# EXPERIMENTAL_DETAILS: Dose-dependent antisense inhibition of human AR in HuVEC cells (electroporation, qRT-PCR RTS3559, IC50)
# Type: cell-based
# EXPERIMENTAL_PARAMETERS: Table 32; HuVEC, electroporation, approximately 16 hours
# Procedure: After a treatment period of approximately 16 hours, RNA was isolated from the cells and AR mRNA levels were measured by quantitative real-time PCR. Human AR primer probe set RTS3559 was used to measure mRNA levels. AR mRNA levels were adjusted according to total RNA content, as measured by RIBOGREEN®. […] After a treatment period of approximately 16 hours, RNA was isolated from the cells and AR mRNA levels were measured by quantitative real-time PCR. […]
pIC50: −log10 of the molar value. Oligonucleotides are written 5' to 3', each unit as a sugar letter and its base; * is a phosphorothioate linkage, no mark a phosphodiester; rarer units and linkages stand in square brackets, end groups in braces. Plain capitals give the bases only. k = constrained ethyl (cEt); [5mC] = 5-methylcytosine; d = 2'-deoxy (DNA)
ENDPOINT: pIC50

• 583797 (antisense kT*k[5mC]*kG*dG*dA*dT*dA*d[5mC]*dT*dG*d[5mC]*dT*dT*k[5mC]*k[5mC]*kT) [compound 583797] = 6.66
• 583850 (kG*kG*kA*d[5mC]*dG*d[5mC]*dA*d[5mC]*dA*dG*d[5mC]*dG*dG*kG*kT*kG; antisense) [compound 583850] = 6.22
• 583749 (antisense kA*kG*kG*dT*dG*d[5mC]*dT*dG*d[5mC]*dG*d[5mC]*dT*d[5mC]*kG*k[5mC]*kG) [compound 583749] = 6.77
• 583787 (antisense kG*kG*kT*dG*d[5mC]*dT*dG*dG*d[5mC]*d[5mC]*dT*d[5mC]*dG*k[5mC]*kT*k[5mC]) [compound 583787] = 6.37
• 583834 (kA*kG*k[5mC]*dT*dG*dT*dT*d[5mC]*d[5mC]*d[5mC]*d[5mC]*dT*dG*kG*kA*k[5mC]; antisense) [compound 583834] = 6.89
• 549372 (kA*kA*kG*dT*dT*dG*dT*dA*dG*dT*dA*dG*dT*k[5mC]*kG*k[5mC]) [compound 549372] = 6.52
• 583836 (k[5mC]*k[5mC]*kG*dA*dA*dG*d[5mC]*dT*dG*dT*dT*d[5mC]*d[5mC]*k[5mC]*k[5mC]*kT; antisense) [compound 583836] = 6.41
• 549458 (kG*kT*kT*dG*dA*dT*dT*dT*dA*dA*dT*dG*dG*kT*kT*kG) [compound 549458] = 6.82
• 583802 (antisense k[5mC]*kT*k[5mC]*dG*d[5mC]*dT*d[5mC]*dT*d[5mC]*d[5mC]*d[5mC]*dG*d[5mC]*kT*kG*k[5mC]) [compound 583802] = 5.97
• 583881 (k[5mC]*k[5mC]*kT*dT*dT*dG*dG*dT*dG*dT*dA*dA*d[5mC]*k[5mC]*kT*k[5mC]; antisense) [compound 583881] = 6.82
• 583865 (kT*kT*k[5mC]*dA*dG*dT*dG*d[5mC]*dT*d[5mC]*dT*dT*dG*k[5mC]*k[5mC]*kT; antisense) [compound 583865] = 6.72
• 583871 (kA*kT*kA*d[5mC]*dT*d[5mC]*dA*dG*d[5mC]*dA*dG*dT*dA*kT*k[5mC]*kT; antisense) [compound 583871] = 6.55
